- experimental-system: T1, ARHGEF11, O15085
- T1 sequence (O15085 42-136, limits assumed, looked up): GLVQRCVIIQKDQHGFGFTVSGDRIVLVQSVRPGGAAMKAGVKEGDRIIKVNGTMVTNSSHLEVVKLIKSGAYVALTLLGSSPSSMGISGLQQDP
- assay-notes: holdup assay
- Parameters: key: below the threshold = too weak to quantify, mostly under pKd 3.1 to 4
- test-conditions: plain residues with an end cap or a label only (N-terminal biotin on a linker: ado-ado)
attribute-measured: pKd
Form rule: numeric answer, no unit written next to it.

Recorded pKd, per entry:
- binder: "SLNANEVEWF [RNF130, Q86XS8]"
  pKd: 3.96
- binder: "QSYPSKHDYV [CLDN18, P56856]"
  pKd: 3.81
- binder: "KPGKGSETVV [FZD4, Q9ULV1]"
  pKd: 3.69

Query: Given DFLSTFHIRI [CIB2, O75838] , respond with its pKd.
Reply: 3.64

Query: Given LKDDELKTKL [SLCO1A2, P46721] , respond with its pKd.
Reply: 3.98

Hey, just so you know, these numbers are from paper PMC9482650.
